# Test system: AM-38 (Glioblastoma)
# Experiment: combination Emax (second highest fraction inhibited in the dose matrix, 72 h); higher = more inhibition; extreme values may be limits of the assay
Can you tell me combination Emax for the items I'm about to list?
Response field accepts a number only; no unit should be typed.

Just so you know, measured combination Emax for NC1(C(=O)N[C@@H](CCO)c2ccc(Cl)cc2)CCN(c2ncnc3[nH]ccc23)CC1 [Capivasertib] + C[C@@H]1COCCN1C2=NC(=NC(=C2)C3(CC3)[S@](=N)(=O)C)C4=C5C=CNC5=NC=C4 [AZD6738] (first compound max 10 µM, 7x7, partner max 10 µM) came out at 0.7

Just so you know, measured combination Emax for CCN(CCO)CCCOc1ccc2c(Nc3cc(CC(=O)Nc4cccc(F)c4)[nH]n3)ncnc2c1 [AZD2811] + C[C@@H]1COCCN1C2=NC(=NC(=C2)C3(CC3)[S@](=N)(=O)C)C4=C5C=CNC5=NC=C4 [AZD6738] (first compound max 1 µM, 7x7, partner max 10 µM) came out at 0.747

Just so you know, measured combination Emax for CC(=O)c1c(C)c2cnc(Nc3ccc(N4CCNCC4)cn3)nc2n(C2CCCC2)c1=O [Palbociclib] + Cn1cnc2c(F)c(Nc3ccc(Br)cc3Cl)c(C(=O)NOCCO)cc21 [Selumetinib] (first compound max 10 µM, 7x7, partner max 10 µM) came out at 0.568
